Just for reference, PubChem BioAssay (Tox21) is where these values come from.

Exercise: state measured Potency for each of the compounds provided.
Assay: qHTS assay to identify small molecule agonists of the sonic hedgehog signaling (Shh) pathway - cell viability counter screen (AID 1259366); also: potency is read from the fitted curve at half-maximal effect; nearly all actives have a fitted effect of over 50% in size
Conditions: NIH/3T3 Gli1-Luc viability, CellTiter-Fluor, 24 h; series mostly up to 92.4 µM
Records with an inconclusive call do not appear. Active and inactive are the calls of the source. Calls follow the shape of the dose curve; as a rule, active = well fitted cell-killing curve with a large enough effect in the repeat runs; inconclusive = weak or mixed curves, or effect the other way; inactive = flat fitted curve, though single readings scatter.

CCCCCCCCCCCCCC[n+]1ccccc1 ... 61.1 µM (active)

Your task in this section: give Potency for each listed record.
1. CC(=O)OC(OC(C)=O)c1ccc([N+](=O)[O-])o1
2. COC(=O)C1=C(C)NC(C)=C(C(=O)OCCCN2CCC(c3ccccc3)(c3ccccc3)CC2)C1c1cccc([N+](=O)[O-])c1 (stereo not drawn)

OUTPUT:
1: 22.1 µM (active); 2: 26.6 µM (active)
